Assay Comment: xn = mol fraction of the nth substance listed
Condition Details: 363.15 K; 101 kPa; Liquid; Vibrating tube method; x1 = 0.33
Property Label: mass density (kg/m3)
Return type: number; implicit unit kg/m3.

Entry C[N+](C)(C)CCO.[Cl-] [choline chloride] + OCCO — recorded mass density = 1079.1

Entry C[N+](C)(C)CCO.[Cl-] [choline chloride] + OCC(O)CO — recorded mass density = 1157.1

Entry CCN(CC)CCO.Cl [2-(diethylamino)ethanol hydrochloride] + OCC(O)CO — recorded mass density = 1134.4

Entry CCN(CC)CCO.Cl [2-(diethylamino)ethanol hydrochloride] + OCCO — recorded mass density = 1059

Entry C[P+](c1ccccc1)(c1ccccc1)c1ccccc1.[Br-] [methyltriphenylphosphonium bromide] + OCC(O)CO — recorded mass density = 1261.5

====

Assay Comment: xn = mol fraction of the nth substance listed
Condition Details: 333.15 K; 101 kPa; Liquid; Vibrating tube method; x1 = 0.33
Property Label: mass density (kg/m3)
Return type: number; implicit unit kg/m3.

Entry CCN(CC)CCO.Cl [2-(diethylamino)ethanol hydrochloride] + OCCO — recorded mass density = 1077.8

Entry C[N+](C)(C)CCO.[Cl-] [choline chloride] + OCC(O)CO — recorded mass density = 1174.1

Entry CCN(CC)CCO.Cl [2-(diethylamino)ethanol hydrochloride] + OCC(O)CO — recorded mass density = 1153.1

Entry C[N+](C)(C)CCO.[Cl-] [choline chloride] + OCCO — recorded mass density = 1097.4

Entry C[P+](c1ccccc1)(c1ccccc1)c1ccccc1.[Br-] [methyltriphenylphosphonium bromide] + OCC(O)CO — recorded mass density = 1281.7

====

Assay Comment: xn = mol fraction of the nth substance listed
Condition Details: 343.15 K; 101 kPa; Liquid; Vibrating tube method; x1 = 0.25
Property Label: mass density (kg/m3)
Return type: number; implicit unit kg/m3.

Entry CCN(CC)CCO.Cl [2-(diethylamino)ethanol hydrochloride] + OCC(O)CO — recorded mass density = 1177.7

Entry C[P+](c1ccccc1)(c1ccccc1)c1ccccc1.[Br-] [methyltriphenylphosphonium bromide] + OCCO — recorded mass density = 1218.8

Entry C[P+](c1ccccc1)(c1ccccc1)c1ccccc1.[Br-] [methyltriphenylphosphonium bromide] + OCC(O)CO — recorded mass density = 1266

Entry C[N+](C)(C)CCO.[Cl-] [choline chloride] + OCC(O)CO — recorded mass density = 1178.1

Entry CCN(CC)CCO.Cl [2-(diethylamino)ethanol hydrochloride] + OCCO — recorded mass density = 1074

====

Assay Comment: xn = mol fraction of the nth substance listed
Condition Details: 313.15 K; 101 kPa; Liquid; Vibrating tube method; x1 = 0.33
Could you please report measured mass density for the items listed next?
Return type: number; implicit unit kg/m3.

Entry CCN(CC)CCO.Cl [2-(diethylamino)ethanol hydrochloride] + OCC(O)CO — recorded mass density = 1163.8

Entry C[N+](C)(C)CCO.[Cl-] [choline chloride] + OCCO — recorded mass density = 1108.8

Entry CCN(CC)CCO.Cl [2-(diethylamino)ethanol hydrochloride] + OCCO — recorded mass density = 1090.3

Entry C[P+](c1ccccc1)(c1ccccc1)c1ccccc1.[Br-] [methyltriphenylphosphonium bromide] + OCC(O)CO — recorded mass density = 1295.2

Entry C[N+](C)(C)CCO.[Cl-] [choline chloride] + OCC(O)CO — recorded mass density = 1183.8

====

Assay Comment: xn = mol fraction of the nth substance listed
Condition Details: 353.15 K; 101 kPa; Liquid; Vibrating tube method; x1 = 0.33
Property Label: mass density (kg/m3)
Return type: number; implicit unit kg/m3.

Entry CCN(CC)CCO.Cl [2-(diethylamino)ethanol hydrochloride] + OCCO — recorded mass density = 1065.5

Entry C[N+](C)(C)CCO.[Cl-] [choline chloride] + OCC(O)CO — recorded mass density = 1163.5

Entry C[N+](C)(C)CCO.[Cl-] [choline chloride] + OCCO — recorded mass density = 1085.4

Entry CCN(CC)CCO.Cl [2-(diethylamino)ethanol hydrochloride] + OCC(O)CO — recorded mass density = 1140.3

Entry C[P+](c1ccccc1)(c1ccccc1)c1ccccc1.[Br-] [methyltriphenylphosphonium bromide] + OCC(O)CO — recorded mass density = 1268.2

====

Assay Comment: xn = mol fraction of the nth substance listed
Condition Details: 353.15 K; 101 kPa; Liquid; Vibrating tube method; x1 = 0.25
Could you please report measured mass density for the items listed next?
Return type: number; implicit unit kg/m3.

Entry CCN(CC)CCO.Cl [2-(diethylamino)ethanol hydrochloride] + OCC(O)CO — recorded mass density = 1171.9

Entry C[P+](c1ccccc1)(c1ccccc1)c1ccccc1.[Br-] [methyltriphenylphosphonium bromide] + OCC(O)CO — recorded mass density = 1259.3

Entry CCN(CC)CCO.Cl [2-(diethylamino)ethanol hydrochloride] + OCCO — recorded mass density = 1067.5

Entry C[N+](C)(C)CCO.[Cl-] [choline chloride] + OCC(O)CO — recorded mass density = 1173.2

Entry C[P+](c1ccccc1)(c1ccccc1)c1ccccc1.[Br-] [methyltriphenylphosphonium bromide] + OCCO — recorded mass density = 1211.9

====

Assay Comment: xn = mol fraction of the nth substance listed
Condition Details: 303.15 K; 101 kPa; Liquid; Vibrating tube method; x1 = 0.2
Property Label: mass density (kg/m3)
Return type: number; implicit unit kg/m3.

Entry C[P+](c1ccccc1)(c1ccccc1)c1ccccc1.[Br-] [methyltriphenylphosphonium bromide] + OCC(O)CO — recorded mass density = 1285.5

Entry CCN(CC)CCO.Cl [2-(diethylamino)ethanol hydrochloride] + OCCO — recorded mass density = 1100.4

Entry C[P+](c1ccccc1)(c1ccccc1)c1ccccc1.[Br-] [methyltriphenylphosphonium bromide] + OCCO — recorded mass density = 1229

Entry CCN(CC)CCO.Cl [2-(diethylamino)ethanol hydrochloride] + OCC(O)CO — recorded mass density = 1217.3

====

Assay Comment: xn = mol fraction of the nth substance listed
Condition Details: 353.15 K; 101 kPa; Liquid; Vibrating tube method; x1 = 0.2
Property Label: mass density (kg/m3)
Return type: number; implicit unit kg/m3.

Entry CCN(CC)CCO.Cl [2-(diethylamino)ethanol hydrochloride] + OCCO — recorded mass density = 1068.3

Entry C[P+](c1ccccc1)(c1ccccc1)c1ccccc1.[Br-] [methyltriphenylphosphonium bromide] + OCC(O)CO — recorded mass density = 1249.5

Entry C[P+](c1ccccc1)(c1ccccc1)c1ccccc1.[Br-] [methyltriphenylphosphonium bromide] + OCCO — recorded mass density = 1193.6

Entry CCN(CC)CCO.Cl [2-(diethylamino)ethanol hydrochloride] + OCC(O)CO — recorded mass density = 1187.3

====

Assay Comment: xn = mol fraction of the nth substance listed
Condition Details: 333.15 K; 101 kPa; Liquid; Vibrating tube method; x1 = 0.25
Property Label: mass density (kg/m3)
Return type: number; implicit unit kg/m3.

Entry CCN(CC)CCO.Cl [2-(diethylamino)ethanol hydrochloride] + OCC(O)CO — recorded mass density = 1184

Entry C[N+](C)(C)CCO.[Cl-] [choline chloride] + OCC(O)CO — recorded mass density = 1184.4

Entry CCN(CC)CCO.Cl [2-(diethylamino)ethanol hydrochloride] + OCCO — recorded mass density = 1079.7

Entry C[P+](c1ccccc1)(c1ccccc1)c1ccccc1.[Br-] [methyltriphenylphosphonium bromide] + OCC(O)CO — recorded mass density = 1273.6

Entry C[P+](c1ccccc1)(c1ccccc1)c1ccccc1.[Br-] [methyltriphenylphosphonium bromide] + OCCO — recorded mass density = 1226

====

Could you please report measured mass density for the items listed next?
Assay Comment: xn = mol fraction of the nth substance listed
Condition Details: 303.15 K; 101 kPa; Liquid; Vibrating tube method; x1 = 0.25
Return type: number; implicit unit kg/m3.

Entry CCN(CC)CCO.Cl [2-(diethylamino)ethanol hydrochloride] + OCCO — recorded mass density = 1098.6

Entry C[N+](C)(C)CCO.[Cl-] [choline chloride] + OCC(O)CO — recorded mass density = 1200.2

Entry C[P+](c1ccccc1)(c1ccccc1)c1ccccc1.[Br-] [methyltriphenylphosphonium bromide] + OCCO — recorded mass density = 1242.4

Entry C[P+](c1ccccc1)(c1ccccc1)c1ccccc1.[Br-] [methyltriphenylphosphonium bromide] + OCC(O)CO — recorded mass density = 1294.5

Entry CCN(CC)CCO.Cl [2-(diethylamino)ethanol hydrochloride] + OCC(O)CO — recorded mass density = 1202

====

Assay Comment: xn = mol fraction of the nth substance listed
Condition Details: 343.15 K; 101 kPa; Liquid; Vibrating tube method; x1 = 0.2
Property Label: mass density (kg/m3)
Return type: number; implicit unit kg/m3.

Entry CCN(CC)CCO.Cl [2-(diethylamino)ethanol hydrochloride] + OCC(O)CO — recorded mass density = 1193.6

Entry C[P+](c1ccccc1)(c1ccccc1)c1ccccc1.[Br-] [methyltriphenylphosphonium bromide] + OCCO — recorded mass density = 1200.6

Entry C[P+](c1ccccc1)(c1ccccc1)c1ccccc1.[Br-] [methyltriphenylphosphonium bromide] + OCC(O)CO — recorded mass density = 1256.8

Entry CCN(CC)CCO.Cl [2-(diethylamino)ethanol hydrochloride] + OCCO — recorded mass density = 1075
